Reported Tmax is given for each of the following molecules.
- ASSAY_NOTES: Whole-body plethysmography, respiratory effects in rats
- CONDITIONS_USED: Sprague-Dawley, rat, in vivo, iv, 0.34 μmol/kg
Numbered stars: 1 amine (or outer) side, 2 acyl side, 3 side chain; on linkers, the order of the positions; unused ones are H or OH. Square brackets hold non-standard residues; d marks the D form. Peptide text beside a SMILES is read from it. X1 = O=C1C(N[*:1])Cc2ccccc2CN1CCC(=O)[*:2]; Dmt = Cc1cc(O)cc(C)c1C[C@H](N)C(=O)O
Please don't drop the unit; write it after the number.

[
  {
    "MOLECULE": "CC[C@H](C)[C@H](NC(=O)[C@H](CCCNC(=N)N)NC(=O)[C@H](Cc1ccc(O)cc1)NC(=O)[C@H](Cc1ccc(O)cc1)NC(=O)[C@H](CCCNC(=N)N)NC(=O)CCN1Cc2ccccc2CC(NC(=O)[C@@H](CCCNC(=N)N)NC(=O)[C@@H](N)Cc2c(C)cc(O)cc2C)C1=O)C(=O)N[C@@H](CCCCN)C(N)=O (some centres unmarked) [KGNOP1] (H-[Dmt][dR][X1]RYYRIK-NH2)",
    "MEASURED_RESULT": "3 h"
  }
]

Field: next molecule
Query: Tmax; subject: Cc1cc(O)cc(C)c1C[C@H](N)C(=O)N[C@H](CCCNC(=N)N)C(=O)NC1Cc2ccccc2CN(CCC(N)=O)C1=O (some centres unmarked)
4 h
